# TGT: BTK (Homo sapiens)
# EXPERIMENT SUMMARY: biochemical
# CONDITION DETAILS: read-out: BTK inhibition (%), 0.75 uM BTK, […] probe 3l, 15 min preincubation
MEASUREMENT LABEL: inhibition at 10 µM (%)
Value expressed in %; do not type the unit.

The cases that follow already have their inhibition at 10 µM on record.
>>> reported("CC(C)(NS(=O)(=O)c1ccc2c(Cl)cnc(N=C(N)N)c2c1)C(=O)O")
-11.6
>>> reported("CCCCCCOc1cc(C)c(O)c(C)c1C")
-25.5
>>> reported("O=C(O)Cc1ccc2c(c1)C(=O)c1ccccc1CO2")
-5.5
>>> reported("O=C(O)c1cc(C(F)(F)F)ccc1N1CC[C@H](OCc2ccccn2)C1")
8.5
>>> reported("Cc1cc(=O)oc2cc(O)ccc12")
-2.3

Bench note: what inhibition at 10 µM did CC(C)=CC(O)C/C(C)=C/COc1c2ccoc2cc2oc(=O)ccc12 (stereo not drawn) show? -45.6

Bench note: what inhibition at 10 µM did "CN1CCN(c2ccc(OC(F)(F)F)c(Nc3ncc4c(n3)-c3c(c(C(N)=O)nn3CCO)CC4)c2)CC1" show? -26.9

Bench note: what inhibition at 10 µM did "Cc1onc(-c2c(Cl)cccc2Cl)c1C(=O)N[C@@H]1C(=O)N2[C@@H]1SC(C)(C)[C@@H]2C(=O)O" show? 9.3

Bench note: what inhibition at 10 µM did "CC(O)=C(C#N)C(=O)Nc1ccc(C(F)(F)F)cc1" show? 0

----------
Measured inhibition at 10 µM, listed per entry.
# TGT: BTK (Homo sapiens, UniProt Q06187)
# Sequence (Q06187 402-655 limits assumed): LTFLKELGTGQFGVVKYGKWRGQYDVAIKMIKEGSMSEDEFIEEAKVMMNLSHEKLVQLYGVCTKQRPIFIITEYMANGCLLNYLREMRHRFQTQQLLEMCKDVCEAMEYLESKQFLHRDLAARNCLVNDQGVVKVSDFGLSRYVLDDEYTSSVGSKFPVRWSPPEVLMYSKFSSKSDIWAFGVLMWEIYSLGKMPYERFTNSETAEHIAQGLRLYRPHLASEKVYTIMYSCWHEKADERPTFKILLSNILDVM
# EXPERIMENT SUMMARY: biochemical
# CONDITION DETAILS: read-out: BTK inhibition (%), 0.75 uM BTK, […] probe 3l, 15 min preincubation
Value expressed in %; do not type the unit.

Bench note: what inhibition at 10 µM did "c1ccc(-c2nn3c(c2-c2ccnc4cc(OCCN5CCOCC5)ccc24)CCC3)nc1" show? -24.7

Bench note: what inhibition at 10 µM did CNCCC(Oc1ccc(C(F)(F)F)cc1)c1ccccc1 (centres unmarked) show? -7.8

Bench note: what inhibition at 10 µM did "CC(C)[C@H](O)C(=O)N[C@@H](C)C(=O)N[C@@H]1C(=O)N(C)CCc2ccccc21" show? -3.1

Bench note: what inhibition at 10 µM did "CNCc1ccc(C)c(NC(=O)c2ccc(Nc3nc(-c4ccccc4)c4ccccc4n3)cc2)c1" show? 79.5

Bench note: what inhibition at 10 µM did "Cc1cc(O)cc(O)c1" show? 3.1

----------
Measured inhibition at 10 µM, listed per entry.
# TGT: BTK (Homo sapiens)
# EXPERIMENT SUMMARY: biochemical
# CONDITION DETAILS: read-out: BTK inhibition (%), 0.75 uM BTK, […] probe 3l, 15 min preincubation
Value expressed in %; do not type the unit.

>>> reported("N#Cc1cc2cc(CN3CCC(Nc4ncnc5sc(CC(F)(F)F)cc45)CC3)ccc2[nH]1")
78

Bench note: what inhibition at 10 µM did "NC(=O)[C@@H]1CCCN1C(=O)[C@H](Cc1cnc[nH]1)NC(=O)[C@@H]1CCC(=O)N1" show? -5.4

----------
# TGT: BTK (Homo sapiens, UniProt Q06187)
# EXPERIMENT SUMMARY: biochemical
# CONDITION DETAILS: read-out: BTK inhibition (%), 0.75 uM BTK, […] probe 3l, 15 min preincubation
MEASUREMENT LABEL: inhibition at 10 µM
Answers without a unit are incomplete; give the number and then its unit.

The cases that follow already have their inhibition at 10 µM on record.
>>> reported("O=c1c(-n2ccnn2)c[nH]n1-c1cc(N2CCOCC2)ncn1")
"-16.2%"
>>> reported("CCCCCCCCCCCCCC(=O)O")
"1.7%"
>>> reported("O=C(c1ccc(Cl)cc1)N(Cc1ccccc1)C1CCCCC1")
"20.1%"
>>> reported("O=C(c1ccccc1O)c1[nH]c(Cl)c(Cl)c1-n1c(C(=O)c2ccccc2O)cc(Cl)c1Cl")
"117%"

Next compound, inhibition at 10 µM to be filled in.
Bench note: what inhibition at 10 µM did "O=C(/C=C/C=C/c1ccc2c(c1)OCO2)N1CCCCC1" show? -14%
